Reported IC50 values for a set of molecules
Target: mouse brain FAAH (Mus musculus)
Sequence (O08914 1-579): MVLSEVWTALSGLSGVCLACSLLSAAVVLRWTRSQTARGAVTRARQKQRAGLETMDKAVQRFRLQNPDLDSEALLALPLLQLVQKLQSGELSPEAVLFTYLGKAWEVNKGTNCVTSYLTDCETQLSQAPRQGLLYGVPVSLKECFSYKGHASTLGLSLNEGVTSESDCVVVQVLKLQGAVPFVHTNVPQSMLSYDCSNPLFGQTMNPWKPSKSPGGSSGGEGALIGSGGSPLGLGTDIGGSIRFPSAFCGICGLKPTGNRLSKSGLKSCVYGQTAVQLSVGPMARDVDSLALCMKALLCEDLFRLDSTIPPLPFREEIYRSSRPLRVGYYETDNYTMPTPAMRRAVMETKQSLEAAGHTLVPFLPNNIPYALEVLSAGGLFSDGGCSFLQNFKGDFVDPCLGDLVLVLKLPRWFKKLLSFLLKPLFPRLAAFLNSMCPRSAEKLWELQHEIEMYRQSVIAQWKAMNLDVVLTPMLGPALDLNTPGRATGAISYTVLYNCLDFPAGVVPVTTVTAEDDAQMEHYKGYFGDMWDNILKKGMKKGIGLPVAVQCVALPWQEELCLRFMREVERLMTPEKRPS
Express the result in µM but write the number alone.

- molecule: "Cc1cccnc1NC(=O)[C@H](C)c1ccc(-c2ccccc2)c(F)c1 [(R)-Flu-AM1]"
  quantity.name: "IC50"
  unit.annotation: "µM"
  readout.value: 8.8

Can you look up IC50 on mouse brain FAAH (Mus musculus) for Cc1cccnc1NC(=O)[C@@H](C)c1ccc(-c2ccccc2)c(F)c1 [(S)-Flu-AM1] ?
11

Hey, just so you know, these numbers are from paper PMC4583449.
